Target: 26S proteasome non-ATPase regulatory subunit 10 (Homo sapiens) (UniProt O75832)
Sequence (whole entry): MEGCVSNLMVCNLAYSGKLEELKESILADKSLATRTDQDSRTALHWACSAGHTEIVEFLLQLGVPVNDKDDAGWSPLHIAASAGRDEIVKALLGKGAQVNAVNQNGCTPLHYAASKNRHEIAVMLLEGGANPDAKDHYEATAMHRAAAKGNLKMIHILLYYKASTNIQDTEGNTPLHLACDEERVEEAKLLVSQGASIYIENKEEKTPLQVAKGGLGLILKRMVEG
Assay: Binding affinity to gankyrin (unknown origin) assessed as fold increase in change in melting temperature at 300 uM by thermal shift assay relative to control
Active and inactive are the calls of the source. The rule behind the calls is not given here.
Labels: active, inactive

SMILES_RECORD: COC(=O)c1ccc(-n2cc(CCCOS(=O)(=O)c3cccc(C(=O)OC)c3)nn2)cc1
CAT: inactive
--
SMILES_RECORD: CCc1ccc(S(=O)(=O)OCCCc2cn(-c3ccc(C(=O)OC)cc3)nn2)cc1
CAT: active
--
SMILES_RECORD: COC(=O)c1ccc(-n2cc(CCCOS(=O)(=O)c3ccc(OC)cc3)nn2)cc1
CAT: active
--
SMILES_RECORD: COC(=O)c1ccc(-n2cc(CCCOS(=O)(=O)c3cccc(C)c3)nn2)cc1
CAT: inactive
--
SMILES_RECORD: COC(=O)c1ccc(-n2cc(CCCOS(=O)(=O)c3cccc(C#N)c3)nn2)cc1
CAT: active

* * *

Measured IC50 of individual entries
Tested on: HepG2
Test: Antiproliferative activity against human HepG2 cells assessed as reduction in cell viability incubated for 72 hrs by MTT assay
Assay type: functional, cell-based
Conditions: HepG2, 72 h

SMILES_RECORD: COC(=O)c1ccc(-n2cc(CCCOS(=O)(=O)c3ccc(C)cc3)nn2)cc1
IC50: > 50 µM
--
SMILES_RECORD: COC(=O)c1ccc(-n2cc(CCCOS(=O)(=O)c3cccc(F)c3)nn2)cc1
IC50: > 50 µM
--
SMILES_RECORD: COC(=O)c1ccc(-n2cc(CCCOS(=O)(=O)c3ccccc3C)nn2)cc1
IC50: > 50 µM
